Listed here: items and their measured pIC50.
# study target: EGFRL858R + T790M (Homo sapiens, UniProt P00533, L858R/T790M)
# Sequence (P00533 25-1210 T790M/L858R): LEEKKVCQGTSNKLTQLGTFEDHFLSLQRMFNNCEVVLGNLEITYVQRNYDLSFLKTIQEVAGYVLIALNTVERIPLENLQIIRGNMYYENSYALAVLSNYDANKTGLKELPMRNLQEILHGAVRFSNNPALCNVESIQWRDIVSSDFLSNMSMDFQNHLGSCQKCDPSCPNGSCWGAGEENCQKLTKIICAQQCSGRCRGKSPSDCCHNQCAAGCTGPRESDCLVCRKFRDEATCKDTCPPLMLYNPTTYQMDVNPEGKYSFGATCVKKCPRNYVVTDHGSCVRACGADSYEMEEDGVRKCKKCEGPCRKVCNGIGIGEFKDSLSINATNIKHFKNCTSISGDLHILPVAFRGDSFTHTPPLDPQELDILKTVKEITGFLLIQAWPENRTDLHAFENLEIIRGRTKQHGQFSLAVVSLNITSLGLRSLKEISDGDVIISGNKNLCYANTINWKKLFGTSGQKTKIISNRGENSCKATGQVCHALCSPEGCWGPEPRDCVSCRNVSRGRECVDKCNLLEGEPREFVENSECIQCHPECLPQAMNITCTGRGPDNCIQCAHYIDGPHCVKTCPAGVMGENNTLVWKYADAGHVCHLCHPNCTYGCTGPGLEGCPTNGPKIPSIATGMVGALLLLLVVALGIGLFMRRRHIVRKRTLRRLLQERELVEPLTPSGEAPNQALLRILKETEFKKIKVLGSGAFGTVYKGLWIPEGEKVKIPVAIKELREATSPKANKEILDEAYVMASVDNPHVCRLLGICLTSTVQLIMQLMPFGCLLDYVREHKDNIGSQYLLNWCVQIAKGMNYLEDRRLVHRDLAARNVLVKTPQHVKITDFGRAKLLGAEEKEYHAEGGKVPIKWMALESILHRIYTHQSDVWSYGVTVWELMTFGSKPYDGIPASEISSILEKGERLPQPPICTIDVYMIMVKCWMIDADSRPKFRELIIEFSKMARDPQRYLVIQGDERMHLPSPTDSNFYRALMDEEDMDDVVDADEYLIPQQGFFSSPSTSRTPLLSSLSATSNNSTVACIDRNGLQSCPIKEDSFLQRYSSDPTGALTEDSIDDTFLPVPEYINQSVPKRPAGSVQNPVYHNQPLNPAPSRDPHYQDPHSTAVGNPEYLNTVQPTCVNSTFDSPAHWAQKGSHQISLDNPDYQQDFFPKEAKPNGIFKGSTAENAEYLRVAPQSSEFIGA
# method summary: In vitro enzymatic activity assay (Z'-LYTE), EGFR L858R + T790M
# conditions: Z'-LYTE FRET peptide assay; read-out: EGFRL858R + T790M kinase activity (IC50)
# From the text: In vitro enzymatic activity assay: using Z′-LYTE™ technology (detect fluorescence, coupled-enzyme format, based on the differential sensitivity of phosphorylated and non-phosphorylated peptides to proteolytic cleavage), based on FRET, using Z′ LYTE™ FRET peptide substrate, detect the activity of compounds against enzymatic. […] After one hour, site specific protease which can recognize and cleaves non-phosphorylated FRET-peptide. […]
pIC50: −log10 of the molar value.

{"smiles repr": "C=CC(=O)Nc1cccc(N2C(=O)N(Cc3ccccc3)Cc3cnc(Nc4ccc(N5CCN(C)CC5)cc4OC)nc32)c1", "pIC50": "≥ 8.00"}
{"smiles repr": "C=CC(=O)Nc1cccc(N2C(=O)N(C)Cc3cnc(Nc4ccccc4)nc32)c1", "pIC50": "7.00 to 8.00"}
{"smiles repr": "C=CC(=O)Nc1cccc(N2C(=O)N(C)Cc3cnc(Nc4ccc(N5CCSCC5)cc4)nc32)c1", "pIC50": "≥ 8.00"}
{"smiles repr": "C=CC(=O)Nc1cccc(N2C(=O)N(c3cccc(C#N)c3)Cc3cnc(Nc4ccc(N5CCN(C)CC5)cc4OC)nc32)c1", "pIC50": "≥ 8.00"}
{"smiles repr": "C=CC(=O)Nc1cccc(N2C(=O)N(C)Cc3cnc(Nc4ccc(N5CCCCC5)cc4OC)nc32)c1", "pIC50": "7.00 to 8.00"}
{"smiles repr": "C=CC(=O)Nc1cccc(N2C(=O)N(C)Cc3cnc(Nc4ccc(N5CCN(C)CC5)cc4)nc32)c1", "pIC50": "≥ 8.00"}
{"smiles repr": "C=CC(=O)Nc1cccc(N2C(=O)N(C)Cc3cnc(Nc4ccc(OCCOC)cc4OC)nc32)c1", "pIC50": "7.00 to 8.00"}
{"smiles repr": "C=CC(=O)Nc1cccc(N2C(=O)N(C)Cc3cnc(Nc4ccc(N5CCN(C)CC5)cc4OC(C)C)nc32)c1", "pIC50": "7.00 to 8.00"}

* * *

Documented IC50 across a set of compounds
# study target: EGFRL858R + T790M (Homo sapiens, UniProt P00533, L858R/T790M)
# method summary: In vitro enzymatic activity assay (Z'-LYTE), EGFR L858R + T790M
# conditions: Z'-LYTE FRET peptide assay; read-out: EGFRL858R + T790M kinase activity (IC50)
result type: IC50

{"smiles repr": "C=CC(=O)Nc1cccc(N2C(=O)N(c3ccc(Oc4ccccc4)cc3)Cc3cnc(Nc4ccc(N5CCN(C)CC5)cc4OC)nc32)c1", "value observed": "≤ 10 nM"}
{"smiles repr": "C=CC(=O)Nc1cccc(N2C(=O)N(C)Cc3cnc(N4CCN(C)CC4)nc32)c1", "value observed": "1000 to 10000 nM"}
{"smiles repr": "C=CC(=O)Nc1cccc(N2C(=O)N(c3cccc4ccccc34)Cc3cnc(Nc4ccc(N5CCN(C)CC5)cc4OC)nc32)c1", "value observed": "≤ 10 nM"}
{"smiles repr": "C=CC(=O)Nc1cccc(N2C(=O)N(C)Cc3cnc(Nc4ccc(N5CCOCC5)cc4)nc32)c1", "value observed": "≤ 10 nM"}

* * *

Each entry below carries its recorded IC50.
# study target: EGFRL861Q (Homo sapiens, UniProt P00533, L861Q)
# Sequence (P00533 25-1210 L861Q): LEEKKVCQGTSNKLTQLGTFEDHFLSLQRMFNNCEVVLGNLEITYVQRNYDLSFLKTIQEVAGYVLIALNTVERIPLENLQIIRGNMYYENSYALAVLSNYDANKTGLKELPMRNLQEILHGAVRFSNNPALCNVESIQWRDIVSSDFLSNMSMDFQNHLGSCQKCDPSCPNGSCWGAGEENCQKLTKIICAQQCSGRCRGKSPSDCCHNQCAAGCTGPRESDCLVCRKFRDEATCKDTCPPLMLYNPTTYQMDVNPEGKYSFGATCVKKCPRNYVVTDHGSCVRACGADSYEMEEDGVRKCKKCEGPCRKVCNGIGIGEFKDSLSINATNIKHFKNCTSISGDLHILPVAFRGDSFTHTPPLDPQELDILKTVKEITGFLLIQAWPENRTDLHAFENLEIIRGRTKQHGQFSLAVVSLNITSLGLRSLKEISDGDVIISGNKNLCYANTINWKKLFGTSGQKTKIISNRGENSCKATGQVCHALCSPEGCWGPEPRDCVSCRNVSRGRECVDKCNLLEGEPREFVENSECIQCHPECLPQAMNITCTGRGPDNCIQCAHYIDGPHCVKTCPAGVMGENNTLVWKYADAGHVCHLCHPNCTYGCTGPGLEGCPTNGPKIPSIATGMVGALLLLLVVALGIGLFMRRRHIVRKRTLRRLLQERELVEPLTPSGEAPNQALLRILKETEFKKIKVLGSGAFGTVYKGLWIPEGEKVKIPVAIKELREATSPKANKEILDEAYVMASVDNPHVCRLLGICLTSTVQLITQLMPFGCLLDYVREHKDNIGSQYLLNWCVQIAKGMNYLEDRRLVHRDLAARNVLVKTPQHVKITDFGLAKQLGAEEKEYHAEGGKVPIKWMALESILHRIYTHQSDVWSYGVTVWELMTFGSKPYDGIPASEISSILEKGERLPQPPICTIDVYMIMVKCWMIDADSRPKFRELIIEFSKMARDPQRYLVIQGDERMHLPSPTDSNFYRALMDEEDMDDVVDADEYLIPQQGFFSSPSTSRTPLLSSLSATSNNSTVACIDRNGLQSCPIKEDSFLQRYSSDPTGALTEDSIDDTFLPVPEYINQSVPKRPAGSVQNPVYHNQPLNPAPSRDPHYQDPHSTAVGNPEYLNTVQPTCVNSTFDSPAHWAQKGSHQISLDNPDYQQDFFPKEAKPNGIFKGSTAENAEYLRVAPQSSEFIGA
# method summary: In vitro enzymatic activity assay (Z'-LYTE), EGFR L861Q
# conditions: Z'-LYTE FRET peptide assay; read-out: EGFRL861Q kinase activity (IC50)
# Text: In vitro enzymatic activity assay: using Z′-LYTE™ technology (detect fluorescence, coupled-enzyme format, based on the differential sensitivity of phosphorylated and non-phosphorylated peptides to proteolytic cleavage), based on FRET, using Z′ LYTE™ FRET peptide substrate, detect the activity of compounds against enzymatic. […] After one hour, site specific protease which can recognize and cleaves non-phosphorylated FRET-peptide. […]
result type: IC50

{"smiles repr": "C=CC(=O)Nc1cccc(N2C(=O)N(c3ccc(Oc4ccccc4)cc3)Cc3cnc(Nc4ccc(N5CCN(C)CC5)cc4OC)nc32)c1", "value observed": "≤ 0.01 µM"}
{"smiles repr": "COc1cc(N2CCN(C)CC2)ccc1Nc1ncc2c(n1)N(c1cccc(N)c1)C(=O)N(C)C2", "value observed": "1 to 10 µM"}
{"smiles repr": "C=CC(=O)Nc1cccc(N2C(=O)N(c3ccccc3C)Cc3cnc(Nc4ccc(N5CCN(C)CC5)cc4OC)nc32)c1", "value observed": "≤ 0.01 µM"}
{"smiles repr": "C=CC(=O)Nc1cccc(N2C(=O)N(C)Cc3cnc(Nc4ccc(N5CCC(N6CCN(C)CC6)CC5)cc4)nc32)c1", "value observed": "≤ 0.01 µM"}
{"smiles repr": "C=CC(=O)Nc1cccc(N2C(=O)N(C)Cc3cnc(Nc4ccc(N5CCN(C)CC5)cc4OCC)nc32)c1", "value observed": "≤ 0.01 µM"}
{"smiles repr": "C=CC(=O)Nc1cccc(N2C(=O)N(C)Cc3cnc(NC)nc32)c1", "value observed": "1 to 10 µM"}
{"smiles repr": "C=CC(=O)Nc1cccc(N2C(=O)N(C)Cc3cnc(Nc4ccc(N(C)C)cc4OC)nc32)c1", "value observed": "≤ 0.01 µM"}
{"smiles repr": "C=CC(=O)Nc1cccc(N2C(=O)N(c3ccc(OC)cc3)Cc3cnc(Nc4ccc(N5CCN(C)CC5)cc4OC)nc32)c1", "value observed": "≤ 0.01 µM"}
{"smiles repr": "C=CC(=O)Nc1cccc(N2C(=O)N(C)Cc3cnc(Nc4ccc(N5CCCC5)cc4OC)nc32)c1", "value observed": "≤ 0.01 µM"}
{"smiles repr": "C=CC(=O)Nc1cccc(N2C(=O)N(C)Cc3cnc(Nc4ccc(N5CCN(C)CC5)cc4C)nc32)c1", "value observed": "≤ 0.01 µM"}
{"smiles repr": "C=CC(=O)Nc1cccc(N2C(=O)N(c3cccc([N+](=O)[O-])c3)Cc3cnc(Nc4ccc(N5CCN(C)CC5)cc4OC)nc32)c1", "value observed": "≤ 0.01 µM"}
{"smiles repr": "C=CC(=O)Nc1cccc(N2C(=O)N(C)Cc3cnc(Nc4ccc(N5CCOCC5)cc4)nc32)c1", "value observed": "≤ 0.01 µM"}
{"smiles repr": "C=CC(=O)Nc1cccc(N2C(=O)N(c3cccc4ccccc34)Cc3cnc(Nc4ccc(N5CCN(C)CC5)cc4OC)nc32)c1", "value observed": "≤ 0.01 µM"}
{"smiles repr": "C=CC(=O)Nc1ccc(F)c(N2C(=O)N(Cc3ccccc3)Cc3cnc(Nc4ccc(N5CCN(C)CC5)cc4OC)nc32)c1", "value observed": "≤ 0.01 µM"}
{"smiles repr": "C=CC(=O)Nc1cccc(N2C(=O)N(C)Cc3cnc(Nc4ccc(N5CCCN(C)CC5)cc4OC)nc32)c1", "value observed": "≤ 0.01 µM"}
{"smiles repr": "C=CC(=O)Nc1cccc(N2C(=O)N(C)Cc3cnc(Nc4ccc(N5CCC(N6CCN(C)CC6)CC5)cc4OC)nc32)c1", "value observed": "≤ 0.01 µM"}
{"smiles repr": "C=CC(=O)Nc1cccc(N2C(=O)N(c3ccc(-c4ccccc4)cc3)Cc3cnc(Nc4ccc(N5CCN(C)CC5)cc4OC)nc32)c1", "value observed": "≤ 0.01 µM"}
{"smiles repr": "CCC(=O)Nc1cccc(N2C(=O)N(C)Cc3cnc(Nc4ccc(N5CCN(C)CC5)cc4OC)nc32)c1", "value observed": "1 to 10 µM"}
{"smiles repr": "C=CC(=O)Nc1cccc(N2C(=O)N(Cc3ccccc3)Cc3cnc(Nc4ccc(N5CCN(C)CC5)cc4OC)nc32)c1", "value observed": "≤ 0.01 µM"}
{"smiles repr": "C=CC(=O)Nc1cccc(N2C(=O)N(c3cccc(C#N)c3)Cc3cnc(Nc4ccc(N5CCN(C)CC5)cc4OC)nc32)c1", "value observed": "≤ 0.01 µM"}
{"smiles repr": "C=CC(=O)Nc1cccc(N2C(=O)N(c3cccc(Cl)c3)Cc3cnc(Nc4ccc(N5CCN(C)CC5)cc4OC)nc32)c1", "value observed": "≤ 0.01 µM"}
{"smiles repr": "C=CC(=O)Nc1cccc(N2C(=O)N(C)Cc3cnc(Nc4ccc(OCCOC)cc4OC)nc32)c1", "value observed": "≤ 0.01 µM"}
{"smiles repr": "C=CC(=O)Nc1cccc(N2C(=O)N(C)Cc3cnc(Nc4ccc(OCCN5CCOCC5)cc4OC)nc32)c1", "value observed": "≤ 0.01 µM"}
{"smiles repr": "C=CC(=O)Nc1cccc(N2C(=O)N(C(C)C)Cc3cnc(Nc4ccc(N5CCN(C)CC5)cc4OC)nc32)c1", "value observed": "≤ 0.01 µM"}
{"smiles repr": "C=CC(=O)Nc1cccc(N2C(=O)N(C)Cc3cnc(Nc4ccc(N5CC[C@H](N(C)C)C5)cc4OC)nc32)c1", "value observed": "≤ 0.01 µM"}
{"smiles repr": "C=CC(=O)Nc1cccc(N2C(=O)N(C)Cc3cnc(Nc4ccc(N5CCSCC5)cc4OC)nc32)c1", "value observed": "≤ 0.01 µM"}
{"smiles repr": "C=CC(=O)Nc1cccc(N2C(=O)N(C)Cc3cnc(Nc4ccc(N5CC[C@@H](N(C)C)C5)cc4OC)nc32)c1", "value observed": "≤ 0.01 µM"}
{"smiles repr": "C=CC(=O)Nc1cccc(N2C(=O)N(c3ccc(F)c(Cl)c3)Cc3cnc(Nc4ccc(N5CCN(C)CC5)cc4OC)nc32)c1", "value observed": "≤ 0.01 µM"}
{"smiles repr": "C=CC(=O)Nc1cccc(N2C(=O)N(C)Cc3cnc(Nc4ccc(N5CCN(C)CC5)cc4OC(C)C)nc32)c1", "value observed": "0.01 to 0.1 µM"}
{"smiles repr": "C=CC(=O)Nc1cccc(N2C(=O)N(C)Cc3cnc(Nc4ccc(N5CCOCC5)cc4OC)nc32)c1", "value observed": "0.01 to 0.1 µM"}
